The measurements presented in this section are drawn from the RNAGym collection of RNA variant scans (doi:10.7554/elife.80360).

B1: Hairpin Ribozyme (parent)
chain: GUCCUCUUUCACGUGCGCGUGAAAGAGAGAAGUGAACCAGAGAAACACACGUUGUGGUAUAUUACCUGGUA

Variants of: B1
Experiment: self-cleavage, relative activity (ratio to wild type); higher = more cleavage; co-transcriptional
Rule: self-cleavage of 0.1 or more gives YES; anything lower gives NO.

Q: In plain terms: is recorded self-cleavage at least 0.1 for A28G G68U ?
A: YES

Q: In plain terms: is recorded self-cleavage at least 0.1 for C6A U20C ?
A: YES

Q: In plain terms: is recorded self-cleavage at least 0.1 for G25U G34U ?
A: YES

Q: In plain terms: is recorded self-cleavage at least 0.1 for A43G A61C ?
A: NO

Q: In plain terms: is recorded self-cleavage at least 0.1 for A30U G69C ?
A: NO

Q: In plain terms: is recorded self-cleavage at least 0.1 for G13C G29A ?
A: YES

Q: In plain terms: is recorded self-cleavage at least 0.1 for A39C G56U ?
A: YES

Q: In plain terms: is recorded self-cleavage at least 0.1 for G29A A61U ?
A: NO

Q: In plain terms: is recorded self-cleavage at least 0.1 for C38G G69U ?
A: YES

Q: In plain terms: is recorded self-cleavage at least 0.1 for U2G A11U ?
A: YES

Q: In plain terms: is recorded self-cleavage at least 0.1 for A11G G57U ?
A: YES

Q: In plain terms: is recorded self-cleavage at least 0.1 for A11C U63G ?
A: YES

Q: In plain terms: is recorded self-cleavage at least 0.1 for A31C A61G ?
A: NO

Q: In plain terms: is recorded self-cleavage at least 0.1 for A47U G68C ?
A: YES

Q: In plain terms: is recorded self-cleavage at least 0.1 for G27A G57U ?
A: YES

Q: In plain terms: is recorded self-cleavage at least 0.1 for A41G A47C ?
A: YES
